Cathepsin S (Mus musculus, UniProt O70370) pIC50, compiled from various sources.
Sequence (O70370 whole entry): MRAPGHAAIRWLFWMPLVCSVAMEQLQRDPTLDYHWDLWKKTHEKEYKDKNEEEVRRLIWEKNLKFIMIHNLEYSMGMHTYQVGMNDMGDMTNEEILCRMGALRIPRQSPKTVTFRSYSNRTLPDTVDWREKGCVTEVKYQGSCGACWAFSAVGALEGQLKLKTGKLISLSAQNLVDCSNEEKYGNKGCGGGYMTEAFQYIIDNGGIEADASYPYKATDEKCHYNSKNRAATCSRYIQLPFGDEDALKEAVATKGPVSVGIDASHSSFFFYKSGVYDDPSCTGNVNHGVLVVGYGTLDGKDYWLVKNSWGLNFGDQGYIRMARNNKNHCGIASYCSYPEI
// field semantics: pIC50 = negative decimal log of concentration (mol/L)

Known results for compounds:
>>> quantitative_readout("CN1CCN(C(=O)Nc2ccc3c(c2)C(NC(=O)c2ccccc2)CCC3)CC1 (stereo unspecified)")
5.56
>>> quantitative_readout("CC(=O)N1CCN(c2ccc(OCc3cc4cnc(C#N)nc4n3CCC3CCC(F)(F)CC3)cc2)CC1")
7.70
>>> quantitative_readout("N#CC1(NC(=O)[C@@H]2C[C@@H](S(=O)(=O)c3ccccc3)CN2C(=O)c2ccccc2)CC1")
7.54

**Q:** Provide value of pIC50 for this record tested with Cathepsin S (Mus musculus, UniProt O70370): `N#CC1(NC(=O)[C@@H]2C[C@@H](S(=O)(=O)c3ccccc3Cl)CN2C(=O)c2ccccc2)CC1`
**A:** 9.00

**Q:** Provide value of pIC50 for this record tested with Cathepsin S (Mus musculus, UniProt O70370): `CC(=O)N1C[C@H](S(=O)(=O)c2ccccc2Cl)C[C@H]1C(=O)NC1(C#N)CC1`
**A:** 8.70

**Q:** Provide value of pIC50 for this record tested with Cathepsin S (Mus musculus, UniProt O70370): `CC(=O)N1CCN(c2ccc(OCc3cc4cnc(C#N)nc4n3CCC3CCCCC3)cc2)CC1`
**A:** 8.00
